Consider the following binders; for each one, report its kon.
# MEASUREMENT_TARGET: T1, human VEGF (hVEGF) (human, UniProt P15692 181-395)
# T1 construct: also called VEGF-A
# T1 sequence: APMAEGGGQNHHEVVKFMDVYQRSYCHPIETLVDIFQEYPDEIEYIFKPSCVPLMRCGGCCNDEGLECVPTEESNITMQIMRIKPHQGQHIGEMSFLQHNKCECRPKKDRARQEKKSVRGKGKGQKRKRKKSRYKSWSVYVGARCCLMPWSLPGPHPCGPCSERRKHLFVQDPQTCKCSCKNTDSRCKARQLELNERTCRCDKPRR
# MEASUREMENT_PROTOCOL: SPR single-cycle
One number for each entry, in M⁻¹ s⁻¹.

[
  {
    "BINDER": "G6.31 HC-I51H (Fab, name in Kabat numbering, V domains shown, Fab) VH: EVQLVESGGGLVQPGGSLRLSCAASGFTISDYWIHWVRQAPGKGLEWVAGHTPAGGYTYYADSVKGRFTISADTSKNTAYLQMNSLRAEDTAVYYCARFVFFLPYAMDYWGQGTLVTVSS VL: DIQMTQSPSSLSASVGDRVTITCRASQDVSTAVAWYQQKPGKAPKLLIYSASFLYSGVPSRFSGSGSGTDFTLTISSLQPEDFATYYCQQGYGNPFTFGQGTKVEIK",
    "UNIT_NAME": "M⁻¹ s⁻¹",
    "MEASURED_NUMBER": "2.48e+06"
  }
]

*Q* Param item = G6.31 HC-N82aR (Fab, name in Kabat numbering, V domains shown, Fab) VH: EVQLVESGGGLVQPGGSLRLSCAASGFTISDYWIHWVRQAPGKGLEWVAGITPAGGYTYYADSVKGRFTISADTSKNTAYLQMRSLRAEDTAVYYCARFVFFLPYAMDYWGQGTLVTVSS VL: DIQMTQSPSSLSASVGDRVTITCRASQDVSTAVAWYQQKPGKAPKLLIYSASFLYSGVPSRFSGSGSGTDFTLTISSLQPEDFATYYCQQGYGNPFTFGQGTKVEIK ; retrieve measured kon.
*A* 1.39e+06
